Tested on: 2G12 (anti-HIV gp120 broadly neutralizing antibody)
assayNotes: filter
measurementParameters: 2'-F pyrimidines; every U is 2'-F-5-ethynyl-U clicked to Man9-cyclohexyl azide (3 glycans); 20 mM Tris pH 7.5, 150 mM NaCl, 2 mM MgSO4; not gel purified; Fbmax 23%
recordedMetric: Kd (nM)

>>> measvalue("GGAGAGAAGGAGGGAAGAGAGAAAAAAUCGACGGAACAGGGGCCCCCUGUGGAAAGCGACACAAAGCCCGG [15F1]")
40
